Target: BuChE (Homo sapiens, UniProt P06276)
Sequence (P06276 29-602): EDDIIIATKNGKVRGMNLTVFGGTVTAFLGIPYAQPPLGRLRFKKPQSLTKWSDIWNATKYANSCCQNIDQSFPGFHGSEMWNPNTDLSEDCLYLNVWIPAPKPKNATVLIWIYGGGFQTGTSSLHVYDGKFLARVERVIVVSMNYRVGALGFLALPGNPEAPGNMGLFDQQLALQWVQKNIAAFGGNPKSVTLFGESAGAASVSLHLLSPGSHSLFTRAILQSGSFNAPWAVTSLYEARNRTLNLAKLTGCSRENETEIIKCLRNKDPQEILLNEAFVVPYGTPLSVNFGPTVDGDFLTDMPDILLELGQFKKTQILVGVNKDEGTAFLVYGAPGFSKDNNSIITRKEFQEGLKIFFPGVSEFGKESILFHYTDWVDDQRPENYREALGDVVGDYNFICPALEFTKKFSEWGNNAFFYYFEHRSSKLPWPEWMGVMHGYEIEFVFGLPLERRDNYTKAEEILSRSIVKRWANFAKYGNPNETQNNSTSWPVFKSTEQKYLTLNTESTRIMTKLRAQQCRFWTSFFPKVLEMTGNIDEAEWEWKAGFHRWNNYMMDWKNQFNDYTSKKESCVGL
Assay: Synergism of antipsychotics with donepezil/rivastigmine (binary mixtures), BuChE;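 further: combination index derived by median-effect analysis of combined drug effects on the cholinesterase, with values below 1 meaning synergism, exactly 1 additivity and above 1 antagonism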
Details: rivastigmine 0.25 μmol/L + antipsychotic at TPCmax; ComboSyn
property: CI (combination index), BuChE
One number for each entry.

>  <molSmiles>
OC1(c2ccc(Cl)c(C(F)(F)F)c2)CCN(CCCC(c2ccc(F)cc2)c2ccc(F)cc2)CC1

>  <property>
CI (combination index), BuChE

>  <reportedResult>
0.79

$$$$
>  <molSmiles>
O=C(CCCN1CCC(n2c(O)nc3ccccc32)CC1)c1ccc(F)cc1

>  <property>
CI (combination index), BuChE

>  <reportedResult>
0.56

$$$$
>  <molSmiles>
O=C(CCCN1CCC(O)(c2ccc(Cl)cc2)CC1)c1ccc(F)cc1

>  <property>
CI (combination index), BuChE

>  <reportedResult>
0.67

$$$$

Continue with the compound presented below.
# get_value(readout='CI (combination index), BuChE', item= O=C(CCCN1CCC(O)(c2ccc(Br)cc2)CC1)c1ccc(F)cc1 )
0.57

---

Molecular target: BuChE (Homo sapiens)
Assay: Synergism of antipsychotics with donepezil/rivastigmine (binary mixtures), BuChE
Settings: rivastigmine 0.1 μmol/L + antipsychotic at TPCmax; ComboSyn
Please use Y for CI (combination index), BuChE under 0.4 and N for everything else, ties included.

Example entries begin here.
>  <molecule>
O=c1[nH]c2ccccc2n1C1CCN(CCCC(c2ccc(F)cc2)c2ccc(F)cc2)CC1 [Pimozide, pimozide]

>  <label>
N

$$$$
>  <molecule>
O=C(CCCN1CCC(n2c(O)nc3ccccc32)CC1)c1ccc(F)cc1 [Benperidol, benperidol]

>  <label>
Y

$$$$
>  <molecule>
O=C(CCCN1CCC(O)(c2ccc(Br)cc2)CC1)c1ccc(F)cc1 [Bromperidol, bromperidol]

>  <label>
Y

$$$$
>  <molecule>
OCCOCCN1CCN(C2=Nc3ccccc3Sc3ccccc32)CC1 [Quetiapine, quetiapine]

>  <label>
N

$$$$
>  <molecule>
O=C(CCCN1CCC(O)(c2ccc(Cl)cc2)CC1)c1ccc(F)cc1 [Haloperidol, haloperidol]

>  <label>
N

$$$$

Check if CI (combination index), BuChE falls below 0.4 for OC1(c2ccc(Cl)c(C(F)(F)F)c2)CCN(CCCC(c2ccc(F)cc2)c2ccc(F)cc2)CC1 [Penfluridol, penfluridol] .
N

---

Target: AChE (Homo sapiens)
Assay: Synergism of antipsychotics with donepezil/rivastigmine (binary mixtures), AChE
Conditions: donepezil 0.02 μmol/L + antipsychotic at TPCmax; ComboSyn
property: CI (combination index), AChE
Numbers only.

Worked examples, 3 compounds total:
>  <compound>
O=C(CCCN1CCC(n2c(O)nc3ccccc32)CC1)c1ccc(F)cc1 [Benperidol, benperidol]

>  <CI (combination index), AChE>
1.04

$$$$
>  <compound>
O=C(CCCN1CCC(O)(c2ccc(Br)cc2)CC1)c1ccc(F)cc1 [Bromperidol, bromperidol]

>  <CI (combination index), AChE>
0.81

$$$$
>  <compound>
OC1(c2ccc(Cl)c(C(F)(F)F)c2)CCN(CCCC(c2ccc(F)cc2)c2ccc(F)cc2)CC1 [Penfluridol, penfluridol]

>  <CI (combination index), AChE>
0.93

$$$$

// lookup CI (combination index), AChE for O=c1[nH]c2ccccc2n1C1CCN(CCCC(c2ccc(F)cc2)c2ccc(F)cc2)CC1 [Pimozide, pimozide]
0.62

---

Give CI (combination index), AChE for every item shown.
Biological target: UniProt P22303
Assay: Synergism of antipsychotics with donepezil/rivastigmine (binary mixtures), AChE
Settings: donepezil 0.01 μmol/L + antipsychotic at TPCmax; ComboSyn
Answers are plain numbers.

Examples with answers:
>  <compound>
O=C(CCCN1CCC(n2c(O)nc3ccccc32)CC1)c1ccc(F)cc1

>  <CI (combination index), AChE>
1.09

$$$$
>  <compound>
O=C(CCCN1CCC(O)(c2ccc(Br)cc2)CC1)c1ccc(F)cc1

>  <CI (combination index), AChE>
0.78

$$$$
>  <compound>
OC1(c2ccc(Cl)c(C(F)(F)F)c2)CCN(CCCC(c2ccc(F)cc2)c2ccc(F)cc2)CC1

>  <CI (combination index), AChE>
0.80

$$$$

Then there is this compound:
Form field: reported CI (combination index), AChE of O=c1[nH]c2ccccc2n1C1CCN(CCCC(c2ccc(F)cc2)c2ccc(F)cc2)CC1 [Pimozide, pimozide]
0.63

---

Provide the recorded CI (combination index), AChE for the entries that follow.
Target: AChE (Homo sapiens)
Assay: Synergism of antipsychotics with donepezil/rivastigmine (binary mixtures), AChE
Conditions: rivastigmine 40 μmol/L + antipsychotic at TPCmax; ComboSyn

Parameters: items (list). Returns: CI (combination index), AChE for each item.
1. O=C(CCCN1CCC(O)(c2ccc(Cl)cc2)CC1)c1ccc(F)cc1 [Haloperidol, haloperidol]
2. O=C(CCCN1CCC(O)(c2ccc(Br)cc2)CC1)c1ccc(F)cc1 [Bromperidol, bromperidol]
3. O=C(CCCN1CCC(n2c(O)nc3ccccc32)CC1)c1ccc(F)cc1 [Benperidol, benperidol]
4. O=c1[nH]c2ccccc2n1C1CCN(CCCC(c2ccc(F)cc2)c2ccc(F)cc2)CC1 [Pimozide, pimozide]
5. OC1(c2ccc(Cl)c(C(F)(F)F)c2)CCN(CCCC(c2ccc(F)cc2)c2ccc(F)cc2)CC1 [Penfluridol, penfluridol]

0.71
0.53
0.62
0.56
0.97

---

Biological target: BuChE (Homo sapiens)
Assay: Synergism of antipsychotics with donepezil/rivastigmine (binary mixtures), BuChE
Conditions: donepezil 50 μmol/L + antipsychotic at TPCmax; ComboSyn
property: CI (combination index), BuChE

>  <compound>
O=c1[nH]c2ccccc2n1C1CCN(CCCC(c2ccc(F)cc2)c2ccc(F)cc2)CC1 [Pimozide, pimozide]

>  <assayTarget>
BuChE (Homo sapiens)

>  <property>
CI (combination index), BuChE

>  <reportedResult>
0.91

$$$$
>  <compound>
O=C(CCCN1CCC(O)(c2ccc(Cl)cc2)CC1)c1ccc(F)cc1 [Haloperidol, haloperidol]

>  <assayTarget>
BuChE (Homo sapiens)

>  <property>
CI (combination index), BuChE

>  <reportedResult>
0.84

$$$$
>  <compound>
OC1(c2ccc(Cl)c(C(F)(F)F)c2)CCN(CCCC(c2ccc(F)cc2)c2ccc(F)cc2)CC1 [Penfluridol, penfluridol]

>  <assayTarget>
BuChE (Homo sapiens)

>  <property>
CI (combination index), BuChE

>  <reportedResult>
1.14

$$$$
>  <compound>
OCCOCCN1CCN(C2=Nc3ccccc3Sc3ccccc32)CC1 [Quetiapine, quetiapine]

>  <assayTarget>
BuChE (Homo sapiens)

>  <property>
CI (combination index), BuChE

>  <reportedResult>
0.85

$$$$

Alright, here's another compound for you.
Fill in the recorded CI (combination index), BuChE for this compound, with BuChE (Homo sapiens) as test system: O=C(CCCN1CCC(n2c(O)nc3ccccc32)CC1)c1ccc(F)cc1 [Benperidol, benperidol]
0.69

---

Molecular target: AChE (Homo sapiens, UniProt P22303)
Sequence (P22303 32-617 isoform P22303-2 limits assumed): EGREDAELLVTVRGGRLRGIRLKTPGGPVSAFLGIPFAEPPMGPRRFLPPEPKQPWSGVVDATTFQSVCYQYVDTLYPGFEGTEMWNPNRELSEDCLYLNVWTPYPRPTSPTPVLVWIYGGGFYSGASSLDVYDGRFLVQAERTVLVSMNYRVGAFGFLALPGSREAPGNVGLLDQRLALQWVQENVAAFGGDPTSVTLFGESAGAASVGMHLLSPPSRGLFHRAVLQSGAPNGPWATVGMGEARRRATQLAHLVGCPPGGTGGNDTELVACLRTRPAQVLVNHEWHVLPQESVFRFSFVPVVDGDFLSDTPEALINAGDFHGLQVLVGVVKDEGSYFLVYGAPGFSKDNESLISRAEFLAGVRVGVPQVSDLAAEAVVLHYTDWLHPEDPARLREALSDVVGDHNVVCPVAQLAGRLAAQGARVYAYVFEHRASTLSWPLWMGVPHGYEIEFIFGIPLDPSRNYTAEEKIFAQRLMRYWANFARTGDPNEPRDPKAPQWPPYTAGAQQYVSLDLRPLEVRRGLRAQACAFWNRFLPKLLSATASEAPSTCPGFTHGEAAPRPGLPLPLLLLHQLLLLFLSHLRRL
Assay: Synergism of antipsychotics with donepezil/rivastigmine (binary mixtures), AChE;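 further: antipsychotic concentration kept fixed across all measurements, selected from estimated therapeutic plasma levels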
Settings: rivastigmine 75 μmol/L + antipsychotic at TPCmax; ComboSyn
property: CI (combination index), AChE
Answers are plain numbers.

Below are worked cases with known answers.
>  <compound>
O=C(CCCN1CCC(O)(c2ccc(Br)cc2)CC1)c1ccc(F)cc1 [Bromperidol, bromperidol]

>  <property>
CI (combination index), AChE

>  <reportedResult>
0.55

$$$$
>  <compound>
O=C(CCCN1CCC(O)(c2ccc(Cl)cc2)CC1)c1ccc(F)cc1 [Haloperidol, haloperidol]

>  <property>
CI (combination index), AChE

>  <reportedResult>
0.86

$$$$
>  <compound>
OC1(c2ccc(Cl)c(C(F)(F)F)c2)CCN(CCCC(c2ccc(F)cc2)c2ccc(F)cc2)CC1 [Penfluridol, penfluridol]

>  <property>
CI (combination index), AChE

>  <reportedResult>
1.06

$$$$
>  <compound>
O=c1[nH]c2ccccc2n1C1CCN(CCCC(c2ccc(F)cc2)c2ccc(F)cc2)CC1 [Pimozide, pimozide]

>  <property>
CI (combination index), AChE

>  <reportedResult>
0.62

$$$$

What reported CI (combination index), AChE corresponds to O=C(CCCN1CCC(n2c(O)nc3ccccc32)CC1)c1ccc(F)cc1 [Benperidol, benperidol] on AChE (Homo sapiens, UniProt P22303)?
0.66

---

Biological target: AChE (Homo sapiens)
Test: Synergism of antipsychotics with donepezil/rivastigmine (binary mixtures), AChE
Details: donepezil 0.1 μmol/L + antipsychotic at TPCmax; ComboSyn
Please assign n whenever CI (combination index), AChE is at or above 0.9, and y whenever it is below.

>  <molecule>
O=c1[nH]c2ccccc2n1C1CCN(CCCC(c2ccc(F)cc2)c2ccc(F)cc2)CC1 [Pimozide, pimozide]

>  <label>
y

$$$$
>  <molecule>
O=C(CCCN1CCC(O)(c2ccc(Cl)cc2)CC1)c1ccc(F)cc1

>  <label>
y

$$$$
>  <molecule>
O=C(CCCN1CCC(O)(c2ccc(Br)cc2)CC1)c1ccc(F)cc1

>  <label>
y

$$$$

Answer whether the molecule O=C(CCCN1CCC(n2c(O)nc3ccccc32)CC1)c1ccc(F)cc1 has CI (combination index), AChE strictly less than 0.9
n

Just for reference, paper PMC9102502 is where these values come from.
